Listing of recorded perc_inhibition_mean by entry.
# test target: SARS-CoV-2 nsp3-mac1 (Severe acute respiratory syndrome coronavirus 2)
# test protocol: biochemical
# Format: biochemical
# condition context: SARS-CoV-2 nsp3 macrodomain TR-FRET single point, concentration 50.0 uM
recorded metric: perc_inhibition_mean (%)

INSERT INTO measurements (molecular_string, units_of_measure, reading) VALUES
  ('C=CCn1c(Cc2ccccc2)nnc1Sc1ncnc2[nH]ccc12', '%', -7.711),
  ('O=C(c1cccc(Br)c1)N1CCC(c2ccn3ncc(C(=O)N4CCCCC4)c3c2)CC1', '%', 32.136),
  ('c1ccc2sc(CCNc3ncnc4nc[nH]c34)nc2c1', '%', -4.211),
  ('CCc1nc(CN(C)c2nc(C)nc3[nH]ccc23)cs1', '%', -6.131),
  ('Cc1cc(NCc2cnc3c(c2)NC(=O)CO3)cnc1C', '%', 4.531),
  ('FC(F)(F)c1nc(NC[C@H]2CCCO2)c2nc[nH]c2n1', '%', 2.501),
  ('CC(C)NC(=O)[C@@H]1CCCN(c2ncnc3[nH]ccc23)C1', '%', 1.78),
  ('O=C(Cc1ccc(F)cc1)Nc1ccc2[nH]ncc2c1', '%', 1.139),
  ('O=C(Nc1ccc(C(=O)NCc2c(C(=O)O)[nH]c3ccccc23)cc1)NC1CC1', '%', 86.217),
  ('O=S(=O)(Nc1ncccn1)c1ccc2oc3ccccc3c2c1', '%', -3.004),
  ('c1nc(-c2nc(-c3cc(C4CC4)[nH]n3)no2)c2cc[nH]c2n1', '%', -2.809),
  ('OCc1cn([C@@H]2CCCN(c3ncnc4[nH]ccc34)C2)nn1', '%', -0.682),
  ('CCn1cc(CNc2nc3[nH]cnc3c(=O)[nH]2)nn1', '%', -0.991),
  ('COc1cc(CNc2cnc3[nH]ncc3c2)ccc1Cl', '%', -2.794),
  ('c1cc(CNc2cnc3[nH]ncc3c2)cc(-c2ccncc2)c1', '%', -17.179),
  ('c1ccc(CN2CCO[C@@H](CNc3ncnc4nc[nH]c34)C2)cc1', '%', -2.441),
  ('OC[C@@H]1CN(c2ncnc3nc[nH]c23)CCC1(F)F', '%', 1.75),
  ('CNC(=O)c1ccnc(NC(=O)c2ccc(N3CCOCC3)cc2)c1', '%', -12.336),
  ('Cn1ncc2ncnc(NCc3ncccc3O)c21', '%', -2.547),
  ('O=C(NCc1ccc(Cl)cn1)c1ncnc2[nH]ccc12', '%', -4.958),
  ('C=CCn1c(Sc2ncnc3[nH]ccc23)nc2sccc2c1=O', '%', 6.305),
  ('O=C(Nc1cnc2[nH]ncc2c1)c1ccccc1CN1CCOCC1', '%', -3.239),
  ('Cc1cccc(Cl)c1S(=O)(=O)Nc1cnc2[nH]ncc2c1', '%', -0.254),
  ('COc1nc2cc(NC(=O)c3cc(N4CCNC4=O)ccc3F)ccc2[nH]1', '%', -4.208),
  ('COc1cc(Nc2ncnc3[nH]ccc23)ccc1NC(C)=O', '%', -7.761),
  ('c1ccc([C@@H](CNc2ncnc3n[nH]cc23)N2CCOCC2)cc1', '%', -0.781),
  ('O=C(NCc1cc2n(n1)CCCC2)c1cc2cncnc2[nH]1', '%', 4.173),
  ('O=C(Nc1nc2ccc(F)cc2[nH]1)c1cc(N2CCNC2=O)ccc1F', '%', -7.707),
  ('Cn1ncc2c(NCc3ncccc3O)ncnc21', '%', 3.893),
  ('O=C(Nc1cnc2[nH]ncc2c1)C1CCN(c2ccc3nncn3n2)CC1', '%', 16.966),
  ('Cc1[nH]c2ncnc(NC(=O)CCc3ccccc3)c2c1C', '%', 5.021),
  ('OC[C@@H](Nc1ncnc2[nH]c(I)cc12)c1ccccc1', '%', 26.134);

Each recorded value in this set is attributed to paper doi:10.1101/2024.08.19.608619.
